# system: GSK3β (Homo sapiens)
# Sequence (P49841 whole entry): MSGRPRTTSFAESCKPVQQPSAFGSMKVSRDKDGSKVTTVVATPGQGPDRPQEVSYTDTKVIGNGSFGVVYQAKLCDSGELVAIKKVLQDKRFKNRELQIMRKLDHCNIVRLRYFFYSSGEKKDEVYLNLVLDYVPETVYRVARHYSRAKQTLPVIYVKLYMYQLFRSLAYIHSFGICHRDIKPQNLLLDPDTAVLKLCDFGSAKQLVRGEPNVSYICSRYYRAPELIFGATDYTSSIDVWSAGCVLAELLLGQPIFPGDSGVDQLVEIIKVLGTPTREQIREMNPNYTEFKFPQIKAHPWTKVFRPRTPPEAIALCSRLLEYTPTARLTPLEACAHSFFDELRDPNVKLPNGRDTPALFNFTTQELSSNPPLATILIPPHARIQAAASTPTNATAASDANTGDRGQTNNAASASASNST
# protocol-summary: Promega ADP-Glo kinase assay, GSK3β inhibition
# Assay type: biochemical
# experimental-conditions: read-out: Percent Inhibition of GSK3β, 100 μM, single point, n = 3
measurement-kind: inhibition at 100 µM (%)
Numbers only, in %.

COC(=O)C1=C(C)NC(C)=C(C(=O)OC)C1c1ccccc1[N+](=O)[O-] [Nifedipine]
69

With GSK3β (Homo sapiens) as the test system, provide measured inhibition at 100 µM for this molecule: CN(C)C[C@@H]1CCn2cc(c3ccccc32)C2=C(C(=O)NC2=O)c2cn(c3ccccc23)CCO1 [Ruboxistaurin]
96

* * *

For each record, write down the corresponding IC50.
# system: GSK3β (Homo sapiens)
# protocol-summary: Promega ADP-Glo kinase assay, GSK3β inhibition
# Type: biochemical
# experimental-conditions: IC50 GSK3β (ADP-Glo), 10-point three-fold dilution from 100 μM, n = 2
Answers are plain numbers, in µM.

c1ccc2[nH]c(-c3cscn3)nc2c1 [Thiabendazole]
12.1

Attention now turns to another entry.
State its IC50 for this compound: CC(=O)Nc1ncc([N+](=O)[O-])s1 [Nithiamide]
8.5
